Test system: Mycobacterium tuberculosis Erdman (autoluminescent)
Assay Protocol: Einf, fitted maximum growth inhibition of three-drug combination (fraction); higher = stronger maximal inhibition
Test Context: in vitro model: butyrate; time point: constant (~7 days, model-specific)
Quantity Name: Einf
Answer field: number only, no words.

What measured Einf goes with COc1nc2ccc(Br)cc2cc1[C@@H](c1ccccc1)[C@@](O)(CCN(C)C)c1cccc2ccccc12 [bedaquiline] + CC[C@@H](CO)NCCN[C@@H](CC)CO [ethambutol] + CO[C@H]1/C=C/O[C@@]2(C)Oc3c(C)c(O)c4c(O)c(c(/C=N/N5CCN(C6CCCC6)CC5)c(O)c4c3C2=O)NC(=O)/C(C)=C\C=C\[C@H](C)[C@H](O)[C@@H](C)[C@@H](O)[C@@H](C)[C@H](OC(C)=O)[C@@H]1C [rifapentine] ? 0.935

Please report the recorded Einf for NNC(=O)c1ccncc1 [isoniazid] + COc1c(N2C[C@@H]3CCCN[C@@H]3C2)c(F)cc2c(=O)c(C(=O)O)cn(C3CC3)c12 [moxifloxacin] + CO[C@H]1/C=C/O[C@@]2(C)Oc3c(C)c(O)c4c(O)c(c(/C=N/N5CCN(C)CC5)c(O)c4c3C2=O)NC(=O)/C(C)=C\C=C\[C@H](C)[C@H](O)[C@@H](C)[C@@H](O)[C@@H](C)[C@H](OC(C)=O)[C@@H]1C [rifampicin] . 0.934

Entry CC[C@@H](CO)NCCN[C@@H](CC)CO [ethambutol] + NNC(=O)c1ccncc1 [isoniazid] + CO[C@H]1/C=C/O[C@@]2(C)Oc3c(C)c(O)c4c(O)c(c(/C=N/N5CCN(C6CCCC6)CC5)c(O)c4c3C2=O)NC(=O)/C(C)=C\C=C\[C@H](C)[C@H](O)[C@@H](C)[C@@H](O)[C@@H](C)[C@H](OC(C)=O)[C@@H]1C [rifapentine] : reported Einf = ? 0.919

Any idea what Einf was measured for CC(C)/N=c1\cc2n(-c3ccc(Cl)cc3)c3ccccc3nc-2cc1Nc1ccc(Cl)cc1 [clofazimine] + CC(=O)NC[C@H]1CN(c2ccc(N3CCOCC3)c(F)c2)C(=O)O1 [linezolid] + CO[C@H]1/C=C/O[C@@]2(C)Oc3c(C)c(O)c4c(O)c(c(/C=N/N5CCN(C6CCCC6)CC5)c(O)c4c3C2=O)NC(=O)/C(C)=C\C=C\[C@H](C)[C@H](O)[C@@H](C)[C@@H](O)[C@@H](C)[C@H](OC(C)=O)[C@@H]1C [rifapentine] ? 0.918

Recorded Einf for COc1nc2ccc(Br)cc2cc1[C@@H](c1ccccc1)[C@@](O)(CCN(C)C)c1cccc2ccccc12 [bedaquiline] + CC[C@@H](CO)NCCN[C@@H](CC)CO [ethambutol] + NNC(=O)c1ccncc1 [isoniazid] , please? 0.943

Name the reported Einf value associated with the compound NNC(=O)c1ccncc1 [isoniazid] + COc1c(N2C[C@@H]3CCCN[C@@H]3C2)c(F)cc2c(=O)c(C(=O)O)cn(C3CC3)c12 [moxifloxacin] + NC(=O)c1cnccn1 [pyrazinamide] 0.951

Fill in: Einf of NNC(=O)c1ccncc1 [isoniazid] + CO[C@H]1/C=C/O[C@@]2(C)Oc3c(C)c(O)c4c(O)c(c(/C=N/N5CCN(C6CCCC6)CC5)c(O)c4c3C2=O)NC(=O)/C(C)=C\C=C\[C@H](C)[C@H](O)[C@@H](C)[C@@H](O)[C@@H](C)[C@H](OC(C)=O)[C@@H]1C [rifapentine] + CO[C@H]1/C=C/O[C@@]2(C)Oc3c(C)c(O)c4c(O)c(c(/C=N/N5CCN(C)CC5)c(O)c4c3C2=O)NC(=O)/C(C)=C\C=C\[C@H](C)[C@H](O)[C@@H](C)[C@@H](O)[C@@H](C)[C@H](OC(C)=O)[C@@H]1C [rifampicin] is ___ 0.922

# query: Einf of entry CC(C)/N=c1\cc2n(-c3ccc(Cl)cc3)c3ccccc3nc-2cc1Nc1ccc(Cl)cc1 [clofazimine] + O=[N+]([O-])c1cn2c(n1)OC[C@@H](OCc1ccc(OC(F)(F)F)cc1)C2 [pretomanid] + CO[C@H]1/C=C/O[C@@]2(C)Oc3c(C)c(O)c4c(O)c(c(/C=N/N5CCN(C6CCCC6)CC5)c(O)c4c3C2=O)NC(=O)/C(C)=C\C=C\[C@H](C)[C@H](O)[C@@H](C)[C@@H](O)[C@@H](C)[C@H](OC(C)=O)[C@@H]1C [rifapentine] 0.944

Looking for the measured Einf of COc1nc2ccc(Br)cc2cc1[C@@H](c1ccccc1)[C@@](O)(CCN(C)C)c1cccc2ccccc12 [bedaquiline] + CC[C@@H](CO)NCCN[C@@H](CC)CO [ethambutol] + O=[N+]([O-])c1cn2c(n1)OC[C@@H](OCc1ccc(OC(F)(F)F)cc1)C2 [pretomanid] , can you help? 0.925

Suppose we examine the compound CC[C@@H](CO)NCCN[C@@H](CC)CO [ethambutol] + O=[N+]([O-])c1cn2c(n1)OC[C@@H](OCc1ccc(OC(F)(F)F)cc1)C2 [pretomanid] + CO[C@H]1/C=C/O[C@@]2(C)Oc3c(C)c(O)c4c(O)c(c(/C=N/N5CCN(C6CCCC6)CC5)c(O)c4c3C2=O)NC(=O)/C(C)=C\C=C\[C@H](C)[C@H](O)[C@@H](C)[C@@H](O)[C@@H](C)[C@H](OC(C)=O)[C@@H]1C [rifapentine] ; what Einf value has been reported? 0.917

Which measured Einf value corresponds to CC[C@@H](CO)NCCN[C@@H](CC)CO [ethambutol] + O=[N+]([O-])c1cn2c(n1)OC[C@@H](OCc1ccc(OC(F)(F)F)cc1)C2 [pretomanid] + CO[C@H]1/C=C/O[C@@]2(C)Oc3c(C)c(O)c4c(O)c(c(/C=N/N5CCN(C)CC5)c(O)c4c3C2=O)NC(=O)/C(C)=C\C=C\[C@H](C)[C@H](O)[C@@H](C)[C@@H](O)[C@@H](C)[C@H](OC(C)=O)[C@@H]1C [rifampicin] ? 0.908
